# Assay Info: Absorbance and fluorescence maximum wavelengths and quantum yields of the CyNA library
# Format: physicochemical
# Test Conditions: in DMSO, Cardiogreen as standard
Record form. Attribute: φ, quantum yield. Fill in for each entry.

Example entries begin here.
{"Entry Smiles": "CCCN1/C(=C/C=C2\\CCCC(/C=C/C3=[N+](CCC)c4ccccc4C3(C)C)=C2N(Cc2ccccc2Br)C(C)=O)C(C)(C)c2ccccc21", "φ, quantum yield": 0.10}
{"Entry Smiles": "CCCN1/C(=C/C=C2\\CCCC(/C=C/C3=[N+](CCC)c4ccccc4C3(C)C)=C2N(Cc2c(F)cccc2F)C(C)=O)C(C)(C)c2ccccc21", "φ, quantum yield": 0.08}

Provide φ, quantum yield values for the following items, in order.
1. CCCN1/C(=C/C=C2\CCCC(/C=C/C3=[N+](CCC)c4ccccc4C3(C)C)=C2N(Cc2ccc(OC)c(OC)c2)C(C)=O)C(C)(C)c2ccccc21
2. CCCN1/C(=C/C=C2\CCCC(/C=C/C3=[N+](CCC)c4ccccc4C3(C)C)=C2N(Cc2cccc(F)c2F)C(C)=O)C(C)(C)c2ccccc21
3. CCCN1/C(=C/C=C2\CCCC(/C=C/C3=[N+](CCC)c4ccccc4C3(C)C)=C2N(Cc2c(OC)cc(OC)cc2OC)C(C)=O)C(C)(C)c2ccccc21
4. CCCCCCCCCCCCCCN(C(C)=O)C1=C(/C=C/C2=[N+](CCC)c3ccccc3C2(C)C)CCC/C1=C\C=C1\N(CCC)c2ccccc2C1(C)C

1: 0.06; 2: 0.10; 3: 0.11; 4: 0.05

###

For each entry below, report its λem, fluorescence maximum wavelength value.
# Assay Info: Absorbance and fluorescence maximum wavelengths and quantum yields of the CyNA library
# Format: physicochemical
# Test Conditions: CyNA library
Numbers only, in nm.

{"Compound": "CCCN1/C(=C/C=C2\\CCCC(/C=C/C3=[N+](CCC)c4ccccc4C3(C)C)=C2N(Cc2ccccc2OC)C(C)=O)C(C)(C)c2ccccc21 [CyNA-388]", "Endpoint Label": "λem, fluorescence maximum wavelength", "Measured Result": 819}

Please give λem, fluorescence maximum wavelength for each item listed below.
1. CCCN1/C(=C/C=C2\CCCC(/C=C/C3=[N+](CCC)c4ccccc4C3(C)C)=C2N(CCc2ccc(OC)cc2)C(C)=O)C(C)(C)c2ccccc21 [CyNA-395]
2. CCCN1/C(=C/C=C2\CCCC(/C=C/C3=[N+](CCC)c4ccccc4C3(C)C)=C2N(Cc2cc(OC)cc(OC)c2)C(C)=O)C(C)(C)c2ccccc21 [CyNA-262]

1: 820; 2: 822

###

# Assay Info: Absorbance and fluorescence maximum wavelengths and quantum yields of the CyNA library
# Type: physicochemical
# Test Conditions: CyNA library
Endpoint Label: λabs, absorbance maximum wavelength

Sample records with λabs, absorbance maximum wavelength:
{"Compound": "CCCN1/C(=C/C=C2\\CCCC(/C=C/C3=[N+](CCC)c4ccccc4C3(C)C)=C2N(CCc2cccc(F)c2)C(C)=O)C(C)(C)c2ccccc21", "λabs, absorbance maximum wavelength": "806 nm"}
{"Compound": "CCCN1/C(=C/C=C2\\CCCC(/C=C/C3=[N+](CCC)c4ccccc4C3(C)C)=C2N(CCC(c2ccccc2)c2ccccc2)C(C)=O)C(C)(C)c2ccccc21", "λabs, absorbance maximum wavelength": "804 nm"}
{"Compound": "CCCCC(CC)COCCCN(C(C)=O)C1=C(/C=C/C2=[N+](CCC)c3ccccc3C2(C)C)CCC/C1=C\\C=C1\\N(CCC)c2ccccc2C1(C)C (centres unmarked)", "λabs, absorbance maximum wavelength": "806 nm"}
{"Compound": "CCCN1/C(=C/C=C2\\CCCC(/C=C/C3=[N+](CCC)c4ccccc4C3(C)C)=C2N(CCc2ccc(C)cc2)C(C)=O)C(C)(C)c2ccccc21.[I-]", "λabs, absorbance maximum wavelength": "805 nm"}
{"Compound": "CCCN1/C(=C/C=C2\\CCCC(/C=C/C3=[N+](CCC)c4ccccc4C3(C)C)=C2N(C(C)=O)C(C)CCc2ccccc2)C(C)(C)c2ccccc21 (centres unmarked)", "λabs, absorbance maximum wavelength": "804 nm"}

Okay, here is my list. What is λabs, absorbance maximum wavelength for each of these?
1. CCCN1/C(=C/C=C2\CCCC(/C=C/C3=[N+](CCC)c4ccccc4C3(C)C)=C2N(C(C)=O)C2CCN(Cc3ccccc3)CC2)C(C)(C)c2ccccc21
2. CCCN1/C(=C/C=C2\CCCC(/C=C/C3=[N+](CCC)c4ccccc4C3(C)C)=C2N(Cc2cccc(Br)c2)C(C)=O)C(C)(C)c2ccccc21
3. CCCN1/C(=C/C=C2\CCCC(/C=C/C3=[N+](CCC)c4ccccc4C3(C)C)=C2N(Cc2ccccc2)C(C)=O)C(C)(C)c2ccccc21

1. 803 nm
2. 805 nm
3. 806 nm

# batch: return λabs, absorbance maximum wavelength for each of the 8 compounds below
1. CCCN1/C(=C/C=C2\CCCC(/C=C/C3=[N+](CCC)c4ccccc4C3(C)C)=C2N(CCN2CCOCC2)C(C)=O)C(C)(C)c2ccccc21
2. CCCN1/C(=C/C=C2\CCCC(/C=C/C3=[N+](CCC)c4ccccc4C3(C)C)=C2N(Cc2ccc(Cl)c(Cl)c2)C(C)=O)C(C)(C)c2ccccc21
3. CCCCCN(C(C)=O)C1=C(/C=C/C2=[N+](CCC)c3ccccc3C2(C)C)CCC/C1=C\C=C1\N(CCC)c2ccccc2C1(C)C
4. CCCN1/C(=C/C=C2\CCCC(/C=C/C3=[N+](CCC)c4ccccc4C3(C)C)=C2N(CCCN2CCCC2=O)C(C)=O)C(C)(C)c2ccccc21
5. CCCN1/C(=C/C=C2\CCCC(/C=C/C3=[N+](CCC)c4ccccc4C3(C)C)=C2N(Cc2ccccc2OC)C(C)=O)C(C)(C)c2ccccc21
6. CCCN1/C(=C/C=C2\CCCC(/C=C/C3=[N+](CCC)c4ccccc4C3(C)C)=C2N(CCc2cccc(OC)c2)C(C)=O)C(C)(C)c2ccccc21
7. CCCN1/C(=C/C=C2\CCCC(/C=C/C3=[N+](CCC)c4ccccc4C3(C)C)=C2N(Cc2cccc(OC)c2)C(C)=O)C(C)(C)c2ccccc21
8. CCCN1/C(=C/C=C2\CCCC(/C=C/C3=[N+](CCC)c4ccccc4C3(C)C)=C2N(Cc2cccc(C)c2)C(C)=O)C(C)(C)c2ccccc21

1: 805 nm; 2: 805 nm; 3: 804 nm; 4: 802 nm; 5: 803 nm; 6: 805 nm; 7: 804 nm; 8: 804 nm

###

# Assay Info: Primary screen of SERS intensities of CyNAMLA-functionalized AuNPs (compact Raman scanner)
# Type: physicochemical
# Test Conditions: SERS spectra of CyNAMLA-functionalized AuNPs; excitation at 785 nm, laser power 60 mW
I'd be grateful if you could share measured Raman intensity for these entries.
One number for each entry.

Below, each entry is followed by its recorded Raman intensity result.
{"Compound": "CCCN1/C(=C/C=C2\\CCCC(/C=C/C3=[N+](CCCNC(=O)CCCCC4CCSS4)c4ccccc4C3(C)C)=C2N(Cc2ccc(OC)cc2OC)C(C)=O)C(C)(C)c2ccccc21.O=C([O-])C(F)(F)F (stereo not drawn) [CyNAMLA-358]", "Raman intensity": 1121}
{"Compound": "CCCN1/C(=C/C=C2\\CCCC(/C=C/C3=[N+](CCCNC(=O)CCCCC4CCSS4)c4ccccc4C3(C)C)=C2N(Cc2cccc(OC)c2)C(C)=O)C(C)(C)c2ccccc21.O=C([O-])C(F)(F)F (stereo not drawn)", "Raman intensity": 3910}

Let's switch to this compound now.
Given CCCN1/C(=C/C=C2\CCCC(/C=C/C3=[N+](CCCNC(=O)CCCCC4CCSS4)c4ccccc4C3(C)C)=C2N(CC2CCCCC2)C(C)=O)C(C)(C)c2ccccc21.O=C([O-])C(F)(F)F (stereo not drawn) , state its recorded Raman intensity. 7947

###

# Assay Info: Absorbance and fluorescence maximum wavelengths and quantum yields of the CyNA library
# Type: physicochemical
# Test Conditions: CyNA library
Consider the following molecules; for each one, report its λabs, absorbance maximum wavelength.
Answers are plain numbers, in nm.

Worked set:
{"Molecule": "CCCCC(CC)CN(C(C)=O)C1=C(/C=C/C2=[N+](CCC)c3ccccc3C2(C)C)CCC/C1=C\\C=C1\\N(CCC)c2ccccc2C1(C)C (stereo not drawn) [CyNA-230]", "Measured Result": 805}
{"Molecule": "CCCN1/C(=C/C=C2\\CCCC(/C=C/C3=[N+](CCC)c4ccccc4C3(C)C)=C2N(Cc2cccc(Cl)c2)C(C)=O)C(C)(C)c2ccccc21 [CyNA-403]", "Measured Result": 805}
{"Molecule": "CCCN1/C(=C/C=C2\\CCCC(/C=C/C3=[N+](CCC)c4ccccc4C3(C)C)=C2N(Cc2ccccc2Cl)C(C)=O)C(C)(C)c2ccccc21 [CyNA-364]", "Measured Result": 804}
{"Molecule": "CCCN1/C(=C/C=C2\\CCCC(/C=C/C3=[N+](CCC)c4ccccc4C3(C)C)=C2N(CCCN(C)C)C(C)=O)C(C)(C)c2ccccc21 [CyNA-427]", "Measured Result": 805}
{"Molecule": "CCCCCCCCCCCN(C(C)=O)C1=C(/C=C/C2=[N+](CCC)c3ccccc3C2(C)C)CCC/C1=C\\C=C1\\N(CCC)c2ccccc2C1(C)C [CyNA-567]", "Measured Result": 805}

Note: attention shifts to another entry.
# lookup: λabs, absorbance maximum wavelength of CCCN1/C(=C/C=C2\CCCC(/C=C/C3=[N+](CCC)c4ccccc4C3(C)C)=C2N(CCc2ccc(O)cc2)C(C)=O)C(C)(C)c2ccccc21 [CyNA-346] 804

All values here come from patent US9201014B2.
